# Test system: HSkMC
# test-name: cytotoxicity call (relative viability < 0.9)
# measurement-conditions: 10 µM
The campaign covered roughly 39,000 compounds. About 1,500 (3.8%) were called active. This is one part of a sample in which actives are shown more often than they occur.
The categories you may choose from are active, inactive

What was the test verdict on CCOC(=O)C1CCN(c2cn[nH]c(=O)n2)CC1 ?
inactive

Hello, I am checking results. What call was entered for C[C@@H]1CCCCO[C@H](CN(C)CC2CC2)[C@@H](C)CN([C@H](C)CO)C(=O)c2cc(NC(=O)Nc3cccc4ccccc34)ccc2O1 ?
inactive

I would be grateful if you could indicate the recorded call for CC(C)(ON=C(C(=O)NC1C(=O)N2C(C(=O)[O-])=C(C[n+]3ccccc3)CSC12)c1csc(N)n1)C(=O)O (stereo unspecified) .
inactive

Which result was noted for this compound in the test: C[C@@H]1CCCCO[C@@H](CN(C)CC2CCCCC2)[C@@H](C)CN([C@@H](C)CO)C(=O)c2cc(NC(=O)Nc3cccc4ccccc34)ccc2O1
active

Look up the recorded call for COc1ccc2[nH]cc(CCNC(C)=O)c2c1 in this test.
inactive

Name the outcome recorded for COc1cccc(S(=O)(=O)Nc2ccc3c(c2)[C@@H]2C[C@H](CC(=O)NCc4ccccc4F)O[C@H](CO)[C@@H]2O3)c1 in the assay.
inactive

---

# Test system: HSkMC
# test-name: cytotoxicity call (relative viability < 0.9)
# measurement-conditions: 10 µM
Screen size: about 39,000 compounds; about 1,500 (3.8%) were called active. The list comes from a sample in which actives are over-represented; it also holds close analogues and randomly drawn compounds.
Would you mind answering with one of these outcomes? Y for active, N for inactive

Can you look up the reported call for Cc1ccc(S(=O)(=O)N(C)C[C@H]2OCCCC[C@H](C)Oc3ccc(NC(=O)Nc4ccc(F)cc4)cc3C(=O)N([C@@H](C)CO)C[C@@H]2C)cc1 for me?
N

Please share the test call associated with CC1(C)C=Cc2c(c3c(c4c(=O)c(-c5ccc(O)c(O)c5)coc24)OC(C)(C)CC3)O1 .
N

Which outcome was entered for the compound C[C@@H]1CN([C@H](C)CO)C(=O)Cc2cc(NS(=O)(=O)c3ccc(Cl)cc3)ccc2O[C@H]1CN(C)Cc1ccc(C(F)(F)F)cc1 in this test?
Y

Would you mind telling me which call this test gave C[C@@H]1CN([C@@H](C)CO)C(=O)c2c(c3ccccc3n2C)-c2ccccc2CO[C@H]1CN(C)S(=O)(=O)c1cn(C)cn1 ?
N

Would you mind telling me which call this test gave CC(C)=CCc1c2c(c3occ(-c4ccc(O)cc4)c(=O)c3c1O)C=CC(C)(C)O2 ?
N

Next:
Recorded call for CC(C)NC(=O)Nc1ccc2c(c1)C(=O)N([C@@H](C)CO)C[C@@H](C)[C@H](CN(C)S(=O)(=O)c1cn(C)cn1)O2 ?
N

Short answer needed: outcome of this test for CC(C)NC(=O)Nc1ccc2c(c1)CC(=O)N([C@@H](C)CO)C[C@H](C)[C@H](CN(C)Cc1ccc3c(c1)OCO3)O2 ?
N

---

# Test system: HSkMC
# test-name: cytotoxicity call (relative viability < 0.9)
# measurement-conditions: 10 µM
Among all 39,000 compounds or so, about 1,500 (3.8%) were called active. Shown is part of a subset that was picked to be rich in actives.
Outcome field: choose from class 1 = active, class 0 = inactive

For this molecule, state the assay outcome: COc1ccc(NC(=O)N2C[C@@H](O)COC[C@@H]3O[C@H](CC(=O)NC4Cc5ccccc5C4)CC[C@H]32)cc1
class 0

GET /call?item= COc1ccc(NC(=O)Nc2ccc3c(c2)CC(=O)N([C@H](C)CO)C[C@@H](C)[C@@H](CN(C)Cc2ccc(Oc4ccccc4)cc2)O3)cc1 returns the recorded outcome of this test.
class 0

---
Test call, this molecule: C[C@H](CO)N1C[C@H](C)[C@H](CN(C)Cc2ccc(C(=O)Nc3ccccc3N)cc2)OCCCC[C@H](C)Oc2ccc(NC(=O)C3CCCCC3)cc2C1=O
class 0

Which result was noted for this molecule in the test: CC(C)OC(=O)c1nnc(N)[nH]1
class 0

# lookup: test call for CC(C)N(CCOc1c(Br)cc(/C=C/C(=O)NCCCOc2c(Br)cc(CCN(C)C)cc2Br)cc1Br)C(C)C
class 1

Hi, do you know how C[C@@H]1CN([C@H](C)CO)C(=O)c2cc(C3=CCCC3)cnc2O[C@@H]1CN(C)C(=O)c1ccc2c(c1)OCO2 came out in this test?
class 0

Just curious, what result did C[C@H](CO)N1C[C@H](C)[C@H](CN(C)Cc2ccc(Cl)c(Cl)c2)Oc2ccc(NC(=O)Cn3cnnn3)cc2C1=O get here?
class 0

# outcome recorded in this test, key = C[C@H]1CCCCO[C@@H](CN(C)C(=O)Nc2ccc(F)cc2)[C@@H](C)CN([C@@H](C)CO)C(=O)c2cc(NS(=O)(=O)c3cccs3)ccc2O1
class 0

Which result was noted for this molecule in the test: COc1ccc(NC(=O)N(C)C[C@@H]2Oc3ccc(NC(=O)Nc4cccc5ccccc45)cc3CC(=O)N([C@H](C)CO)C[C@@H]2C)cc1
class 0

Test call, this molecule: C[C@H](CO)N1C[C@H](C)[C@H](CN(C)CC2CCCCC2)OCCCC[C@H](C)Oc2ccc(NC(=O)Nc3ccccc3)cc2C1=O
class 1

Call for entry Cn1c(Nc2ccc(C(F)(F)F)cc2)nc2cc(Oc3ccnc(-c4ncc(C(F)(F)F)[nH]4)c3)ccc21 :
class 1

// outcome(item) with item = COc1cccc(S(=O)(=O)N(C)C[C@@H]2Oc3ncc(C#CCN(C)C)cc3C(=O)N([C@H](C)CO)C[C@@H]2C)c1
class 0

Test call, this molecule: CC(C)(C)OC(=O)N[C@H]1CCCCC/C=C\[C@@H]2C[C@@]2(C(=O)NS(=O)(=O)C2CC2)NC(=O)[C@@H]2C[C@@H](OC(=O)N3Cc4cccc(F)c4C3)CN2C1=O
class 0

How was COc1ccc(NC(=O)Nc2ccc3c(c2)CC(=O)N([C@@H](C)CO)C[C@@H](C)[C@H](CN(C)Cc2ccc(Oc4ccccc4)cc2)O3)cc1 classified in this test?
class 1

What call does the record list for COCC(=O)N1CC[C@]2(CC1)CN([C@@H](CO)c1c2c2ccc(cc2n1C)OC)C(=O)CN1CCOCC1 ?
class 0

Query: recorded result category for C[C@@H]1CN([C@H](C)CO)C(=O)c2cc(NC(=O)Nc3ccc(C(F)(F)F)cc3)ccc2O[C@@H](C)CCCCO[C@H]1CN(C)C(=O)Nc1ccc(F)cc1 in this test
class 0

Hi, sorry to bother you, what did the test record for C[C@H](CO)N1C[C@H](C)[C@@H](CN(C)Cc2ccc(C(=O)O)cc2)Oc2c(NS(=O)(=O)c3cn(C)cn3)cccc2C1=O ?
class 0

Could you kindly confirm the outcome this assay logged for COc1ccc(NC(=O)Nc2ccc3c(c2)CC(=O)N([C@H](C)CO)C[C@H](C)[C@H](CN(C)Cc2ccc(Oc4ccccc4)cc2)O3)cc1 ?
class 0

---

# Tested on: HSkMC
# test-name: cytotoxicity call (relative viability < 0.9)
# measurement-conditions: 10 µM
Screen size: about 39,000 compounds; about 1,500 (3.8%) were called active. The sample holds actives, similar compounds and a random draw of the others, so the mix is not that of the screen.
Use one of these outcomes when replying: yes for active, no for inactive

What is the recorded call for this compound in the test? O=C(CCCN1CCC(O)(c2ccc(Br)cc2)CC1)c1ccc(F)cc1
no

Please find the next compound below.
Name the outcome recorded for COc1ccc(CN(C)C[C@H]2OCCCC[C@H](C)Oc3ccc(NC(=O)Nc4cccc5ccccc45)cc3C(=O)N([C@H](C)CO)C[C@@H]2C)cc1 in the assay.
no

---

# Tested on: HSkMC
# test-name: cytotoxicity call (relative viability < 0.9)
# measurement-conditions: 10 µM
Out of some 39,000 compounds screened, about 1,500 (3.8%) were called active. For the sample, actives were picked, then their nearest neighbours and some compounds at random.
experimental-endpoint: cytotoxicity call

Please look up its cytotoxicity call: COc1ccc(CN(C)C[C@H]2OCCCC[C@@H](C)Oc3ccc(NC(=O)Nc4cccc5ccccc45)cc3C(=O)N([C@H](C)CO)C[C@@H]2C)cc1
active

Request the reported cytotoxicity call associated with COc1ccc(CN(C)C[C@@H]2OCCCC[C@H](C)Oc3ccc(NC(=O)Nc4cccc5ccccc45)cc3C(=O)N([C@@H](C)CO)C[C@H]2C)cc1
active

---

# Tested on: HSkMC (human skeletal muscle cells)
# test-name: cytotoxicity call (relative viability < 0.9)
# measurement-conditions: 10 µM
Out of some 39,000 compounds screened, about 1,500 (3.8%) were called active. The sample as a whole holds a higher share of actives than the screen did.
// classify into active, inactive

Outcome logged for C[C@@H]1CCCCO[C@@H](CN(C)Cc2ccc(Cl)c(Cl)c2)[C@@H](C)CN([C@H](C)CO)C(=O)c2cc(NC(=O)Cc3ccccc3)ccc2O1 in this assay:
active

Assay result, entry C[C@H]1CCCCO[C@H](CN(C)Cc2ccc(Cl)c(Cl)c2)[C@@H](C)CN([C@@H](C)CO)C(=O)c2cc(NC(=O)Cc3ccccc3)ccc2O1 — outcome?
inactive

Assay outcome for C[C@@H]1CCCCO[C@@H](CN(C)Cc2ccc(Cl)c(Cl)c2)[C@H](C)CN([C@@H](C)CO)C(=O)c2cc(NC(=O)Cc3ccccc3)ccc2O1 : what was it?
inactive

Write down the call the test reported for this molecule. Item: C[C@@H]1CCCCO[C@H](CN(C)Cc2ccc(Cl)c(Cl)c2)[C@@H](C)CN([C@@H](C)CO)C(=O)c2cc(NC(=O)Cc3ccccc3)ccc2O1
inactive

Continuing:
Record lookup: outcome of this test for CO[C@H]1CN(C)C(=O)c2cc(NC(=O)c3ccc(F)cc3)ccc2OC[C@@H](C)N(C(=O)CN(C)C)C[C@@H]1C ?
inactive
